Reference source for all entries: patent US8034940B2

- Test system: AP-1 induced transcriptional activity
- Experiment summary: Cellular Transrepressional Assay (AP-1 luciferase reporter, PMA-activated A549 cells)
- Format: cell-based
- Condition summary: Cellular Transrepression Assay; listed as 166^a
Quantity kind: EC50 (nM)
Expressed in nM, but write only the number.

Which EC50 reading was recorded for the compound Cc1nnc(NC(=O)C(C)(C)C2c3ccc(-c4ccc(C(=O)N(C)C)cc4)nc3Oc3c(F)cccc32)s1 (stereo not shown) [Example 166] ?
14.5

###

Quick list: Ki per entry.
- System under test: UniProt:P04150
- Experiment summary: Glucocorticoid Receptor Binding Assay (II), fluorescence polarization, FITC-dexamethasone
- Set-up: recombinantly expressed human full-length glucocorticoid receptor; purchased PanVera Co., Madison P2816
- Condition summary: GR Binding Assay (II); read-out: GR (Ki, nM) (GR Binding Assay (II))
Please give a number only; it is taken to be in nM.

Consider the reported Ki for these compounds:
compound="COC[C@H]1CCCN1c1ccc2c(n1)Oc1ccccc1[C@@H]2C(C)(C)C(=O)Nc1nncs1 [Example 145]" quantity_kind=Ki numeric_result=1160
compound="COc1ccc(-c2ccc3c(n2)Oc2ccccc2[C@H]3C(C)(C)C(=O)Nc2nncs2)cc1 [Example 162]" quantity_kind=Ki numeric_result=256
compound="CCOC(=O)c1csc(NC(=O)C(C)(C)C2c3ccccc3Oc3cc(O)ccc32)n1 (centres unmarked) [Example 96]" quantity_kind=Ki numeric_result=22.1
compound="CC(C)(C(=O)Nc1nncs1)[C@@H]1c2ccccc2Oc2nc(N3CCCC3)ccc21 [Example 137]" quantity_kind=Ki numeric_result=221

I'd like to know its Ki. The compound in question is COC(=O)c1csc(NC(=O)C(C)(C)C2c3ccccc3Oc3cc(O)ccc32)n1 (centres unmarked) [Example 99]
18.3

If you can, please state the reported Ki value of COc1ccc2c(c1)Oc1ccccc1[C@@H]2C(C)(C)C(=O)Nc1nccs1 [Example 60] .
35.7

Quick one: Ki of CCOC(=O)c1csc(NC(=O)C(C)(C)C2c3ccccc3Oc3cc(OC)ccc32)n1 (centres unmarked) [Example 48] ?
60.9

# lookup: Ki of CC(C)(C(=O)Nc1nccs1)C1c2ccccc2Oc2ccccc21 [Example 37]
1.4

###

- Test system: AP-1 induced transcriptional activity
- Experiment summary: Cellular Transrepressional Assay (AP-1 luciferase reporter, PMA-activated A549 cells)
- Type: cell-based
- Condition summary: maximum inhibition, Cellular Transrepression Assay
I would appreciate it if you labelled entries True when AP-1 Max % inh (Cellular Transrepression Assay) is 40% or higher, otherwise False.

compound="CCN(C)C(=O)c1ccc(-c2ccc3c(n2)Oc2ccccc2[C@@H]3C(C)(C)C(=O)Nc2nncs2)cc1F [Example 336]" system_under_test="AP-1 induced transcriptional activity" category_label=True

Reported AP-1 Max % inh (Cellular Transrepression Assay) reaches at least 40% for CC(C)(C(=O)Nc1nncs1)C1c2ccccc2Oc2nc(-c3ccc(CC(=O)O)cc3)ccc21 (stereo not drawn) [Example 231] ?
False

Item CCS(=O)(=O)c1ccc(-c2ccc3c(n2)Oc2ccccc2C3C(C)(C)C(=O)Nc2nncs2)cc1 (stereo not drawn) [Example 227] with AP-1 Max % inh (Cellular Transrepression Assay) of 40% or above?
True

Is AP-1 Max % inh (Cellular Transrepression Assay) for CC(C)(C(=O)Nc1nncs1)[C@H]1c2ccccc2Oc2nc(-c3ccc(C(=O)N4CCCCC4)c(F)c3)ccc21 [Example 249] at or above 40%?
True

Decide: AP-1 Max % inh (Cellular Transrepression Assay) of CC(C)(C(=O)Nc1nncs1)[C@H]1c2ccccc2Oc2nc(-c3ccc(C(=O)N4CCCC4)cc3)ccc21 [Example 252] >= 40%?
True

Determine whether measured AP-1 Max % inh (Cellular Transrepression Assay) meets or exceeds 40% for CC(C)Oc1ccc(-c2ccc3c(n2)Oc2ccccc2C3C(C)(C)C(=O)Nc2nncs2)cc1 (stereo not drawn) [Example 209]
True

###

- Test system: AP-1 induced transcriptional activity
- Experiment summary: Cellular Transrepressional Assay (AP-1 luciferase reporter, PMA-activated A549 cells)
- Assay type: cell-based
- Condition summary: maximum inhibition, Cellular Transrepression Assay
Below, each of the compounds is paired with its reported AP-1 Max % inh (Cellular Transrepression Assay) value.

See these solved cases before continuing.
compound="CN(C)C(=O)c1ccc(-c2ccc3c(n2)Oc2ccccc2C3C(C)(C)C(=O)Nc2nncs2)cc1 (stereo not shown)" result=59.04%
compound="CCCCc1ccc(-c2ccc3c(n2)Oc2ccccc2C3C(C)(C)C(=O)Nc2nncs2)c(C)c1 (stereo not shown)" result=61.88%
compound="CC(C)(C(=O)Nc1nncs1)C1c2ccccc2Oc2cc(OC(=O)NCc3ccc(F)cc3)ccc21 (stereo not shown)" result=49.10%

AP-1 Max % inh (Cellular Transrepression Assay) lookup needed for CC(C)(C(=O)Nc1nncs1)[C@H]1c2ccccc2Oc2nc(-c3ccc(C(=O)N4CCCCC4)c(Cl)c3)ccc21 , thanks.
33.74%

###

- System under test: human full-length glucocorticoid receptor (Homo sapiens, UniProt P04150)
- Sequence (P04150 1-777): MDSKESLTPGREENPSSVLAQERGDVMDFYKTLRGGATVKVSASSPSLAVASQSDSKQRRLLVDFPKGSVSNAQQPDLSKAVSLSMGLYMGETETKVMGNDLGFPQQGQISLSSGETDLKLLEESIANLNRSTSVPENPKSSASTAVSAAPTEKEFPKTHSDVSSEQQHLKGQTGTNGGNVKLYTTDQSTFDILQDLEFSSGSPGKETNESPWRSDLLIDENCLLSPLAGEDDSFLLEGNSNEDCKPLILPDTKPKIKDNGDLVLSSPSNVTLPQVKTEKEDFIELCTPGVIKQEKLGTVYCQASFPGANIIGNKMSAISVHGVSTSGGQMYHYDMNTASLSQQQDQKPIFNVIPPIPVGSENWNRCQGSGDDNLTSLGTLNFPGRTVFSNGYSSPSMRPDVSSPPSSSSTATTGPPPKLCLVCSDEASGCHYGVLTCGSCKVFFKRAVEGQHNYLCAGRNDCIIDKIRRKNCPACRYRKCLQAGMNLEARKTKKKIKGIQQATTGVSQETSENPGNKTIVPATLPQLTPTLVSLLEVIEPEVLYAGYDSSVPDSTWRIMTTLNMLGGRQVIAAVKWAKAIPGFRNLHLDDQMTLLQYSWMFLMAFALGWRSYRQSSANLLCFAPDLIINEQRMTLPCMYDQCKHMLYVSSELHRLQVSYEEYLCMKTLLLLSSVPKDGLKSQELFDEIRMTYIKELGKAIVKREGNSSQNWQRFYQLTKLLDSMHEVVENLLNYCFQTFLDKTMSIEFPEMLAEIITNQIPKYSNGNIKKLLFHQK
- Experiment summary: Glucocorticoid Receptor Binding Assay (I), fluorescence polarization, Fluormone GS Red
- Design: purified human recombinant full-length glucocorticoid receptor; purchased Invitrogen Part #2893
- Condition summary: GR Binding Assay (I); read-out: GR (Ki, nM) (GR Binding Assay (I))
Quantity kind: Ki

Some solved cases for reference:
compound="CC(C)(C(=O)NC1=NC(=O)CS1)[C@H]1c2ccccc2Oc2nc(-c3ccc(C(=O)N4CCCC4)c(F)c3)ccc21 [Example 413]" result="37.7 nM"
compound="CC(C)(C(=O)Nc1nncs1)[C@H]1c2ccccc2Oc2nc(-c3ccc(C(=O)N4CCCN(CCO)CC4)cc3)ccc21 [Example 303]" result="278 nM"
compound="CN1CCCN(C(=O)c2ccc(-c3ccc4c(n3)Oc3ccccc3[C@@H]4C(C)(C)C(=O)Nc3nncs3)cc2)CC1 [Example 297]" result="> 1150 nM"
compound="Cc1nc(NC(=O)C(C)(C)C2c3ccccc3Oc3nc(-c4ccc(C(=O)N(C)C)cc4)ccc32)sc1C (stereo not shown) [Example 365]" result="18.3 nM"
compound="COC(=O)c1ccc(-c2ccc3c(n2)Oc2ccccc2[C@@H]3C(C)(C)C(=O)Nc2nncs2)cc1 [Example 192]" result="12.3 nM"

Quick check: Ki on human full-length glucocorticoid receptor (Homo sapiens, UniProt P04150), item CC(C)NS(=O)(=O)c1ccc(-c2ccc3c(n2)Oc2ccccc2[C@@H]3C(C)(C)C(=O)Nc2nncs2)cc1 [Example 236] ?
9.44 nM

What measured Ki is associated with CC(C)(C(=O)Nc1nncs1)[C@H]1c2ccccc2Oc2nc(-c3ccc(C(=O)N4CCNC(=O)C4)cc3)ccc21 [Example 296] on human full-length glucocorticoid receptor (Homo sapiens, UniProt P04150)?
19.1 nM

Form field: Ki recorded for CC(C(=O)Nc1nncs1)C1c2ccccc2Oc2nc(-c3ccc(C(=O)N(C)C)cc3)ccc21 (mixture of isomers) [Example 482] with human full-length glucocorticoid receptor (Homo sapiens, UniProt P04150) (enter value)
45 nM

Request - read-out Ki | tested on human full-length glucocorticoid receptor (Homo sapiens, UniProt P04150) | compound CC(C)(C(=O)Nc1nncs1)[C@H]1c2ccccc2Oc2nc(-c3ccc(C#N)cc3)ccc21 [Example 203]
4.61 nM

API: value(readout= Ki, system= human full-length glucocorticoid receptor (Homo sapiens, UniProt P04150), query= Cc1nnc(-c2ccc(-c3ccc4c(n3)Oc3ccccc3[C@@H]4C(C)(C)C(=O)Nc3nncs3)cc2)o1 [Example 237] )
6.04 nM

Look up Ki with human full-length glucocorticoid receptor (Homo sapiens, UniProt P04150) for this compound: CC(C)(C(=O)Nc1nncs1)[C@H]1c2ccccc2Oc2nc(-c3ccc(C(=O)N4CCC[C@H]4C(N)=O)cc3)ccc21 [Example 282]
13.4 nM
